molecular target: FGFR3 K650E (Homo sapiens (Human), UniProt P22607, K650E); experiment: HTRF kinase activity assay, FGFR3 K650E
Sequence (P22607 23-806 K650E): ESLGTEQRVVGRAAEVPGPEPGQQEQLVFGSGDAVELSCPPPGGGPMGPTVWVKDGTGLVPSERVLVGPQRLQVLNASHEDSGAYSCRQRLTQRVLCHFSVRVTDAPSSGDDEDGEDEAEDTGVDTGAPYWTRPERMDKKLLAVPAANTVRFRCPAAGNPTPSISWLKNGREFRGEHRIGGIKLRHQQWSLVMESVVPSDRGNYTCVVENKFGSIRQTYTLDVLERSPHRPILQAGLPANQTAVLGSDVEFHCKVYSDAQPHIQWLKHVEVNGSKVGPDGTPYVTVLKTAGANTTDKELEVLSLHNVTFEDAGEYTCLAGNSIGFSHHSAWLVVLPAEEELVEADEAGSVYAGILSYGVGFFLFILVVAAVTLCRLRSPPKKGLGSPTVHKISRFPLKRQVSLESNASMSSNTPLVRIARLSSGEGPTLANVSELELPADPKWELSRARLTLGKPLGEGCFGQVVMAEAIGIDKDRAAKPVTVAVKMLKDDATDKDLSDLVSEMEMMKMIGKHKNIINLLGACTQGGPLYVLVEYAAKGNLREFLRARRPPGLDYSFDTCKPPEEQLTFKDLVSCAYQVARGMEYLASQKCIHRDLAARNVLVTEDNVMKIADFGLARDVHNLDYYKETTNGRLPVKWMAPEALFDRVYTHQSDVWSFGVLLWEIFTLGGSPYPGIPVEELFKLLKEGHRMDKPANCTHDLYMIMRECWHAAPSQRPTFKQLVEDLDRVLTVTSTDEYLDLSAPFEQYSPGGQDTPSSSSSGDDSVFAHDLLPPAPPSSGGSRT
quantity: IC50

[
  {
    "compound": "[2H]C([2H])([2H])N1CCN(c2cc(-c3ccc(N4CC5CC(C4)N5Cc4ccc(OC)nc4)nc3)c3c(C#N)cnn3c2)CC1 [Compound 94]",
    "assay result": "36.5 nM"
  },
  {
    "compound": "COc1ccc(CN2C3CC2CN(c2ccc(-c4cc(OCC(C)(C)O)cn5ncc(C#N)c45)cn2)C3)cn1 [Selpercatinib, selpercatinib, reference compound]",
    "assay result": "45.9 nM"
  }
]

###

# Lookup of reported AUC(0-t) keyed by entry
assay: Pharmacokinetic assay in rats; type: in vivo, rat; settings: rat, plasma, po; SD male rats, p.o. 5 mg/kg

[
  {
    "compound": "[2H]C([2H])([2H])N1CCN(c2cc(-c3ccc(N4CC5CC(C4)N5Cc4ccc(OC)nc4)nc3)c3c(C#N)cnn3c2)CC1",
    "unit text": "ng·h/mL",
    "AUC(0-t)": 1020
  },
  {
    "compound": "COc1ccc(CN2C3CC2CN(c2ccc(-c4cc(OCC(C)(C)O)cn5ncc(C#N)c45)cn2)C3)cn1 [Selpercatinib, selpercatinib, reference compound]",
    "unit text": "ng·h/mL",
    "AUC(0-t)": 10900
  }
]

###

biological target: CCDC6-RET (Homo sapiens (Human)); assay: HTRF kinase activity assay, CCDC6-RET; assay type: biochemical; details: 1 μM ATP
Sequence (P07949 other isoform, or with tags, fused parts or gaps): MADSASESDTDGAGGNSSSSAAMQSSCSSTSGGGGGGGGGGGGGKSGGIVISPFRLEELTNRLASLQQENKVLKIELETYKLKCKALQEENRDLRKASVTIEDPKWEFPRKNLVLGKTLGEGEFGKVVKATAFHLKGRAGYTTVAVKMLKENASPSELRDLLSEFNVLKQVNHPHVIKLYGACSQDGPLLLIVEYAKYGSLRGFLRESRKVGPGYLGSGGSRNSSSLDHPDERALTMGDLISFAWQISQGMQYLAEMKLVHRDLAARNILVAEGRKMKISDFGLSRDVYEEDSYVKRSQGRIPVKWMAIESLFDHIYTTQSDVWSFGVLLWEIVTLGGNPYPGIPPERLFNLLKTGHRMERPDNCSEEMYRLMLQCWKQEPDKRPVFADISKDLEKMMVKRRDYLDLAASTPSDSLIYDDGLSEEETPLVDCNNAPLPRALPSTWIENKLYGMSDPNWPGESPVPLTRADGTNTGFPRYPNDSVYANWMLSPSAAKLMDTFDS

[
  {
    "molecule": "COc1ccc(CN2C3CC2CN(c2ccc(-c4cc(N5CCOCC5=O)cn5ncc(C#N)c45)cn2)C3)cn1",
    "target or test system": "CCDC6-RET (Homo sapiens (Human))",
    "IC50 [nM]": 12
  },
  {
    "molecule": "COc1ccc(CN2C3CC2CN(c2ccc(-c4cc(N5CCC(OC)C5)cn5ncc(C#N)c45)cn2)C3)cn1 (stereo not shown)",
    "target or test system": "CCDC6-RET (Homo sapiens (Human))",
    "IC50 [nM]": 2.54
  },
  {
    "molecule": "COc1ccc(CN2C3CC2CN(c2ccc(-c4cc(C#CC(C)(C)O)cn5ncc(C#N)c45)cn2)C3)cn1",
    "target or test system": "CCDC6-RET (Homo sapiens (Human))",
    "IC50 [nM]": 1.13
  },
  {
    "molecule": "COc1ccc(CN2C3CC2CN(c2ccc(-c4cc(N5CCC(C)(O)C5)cn5ncc(C#N)c45)cn2)C3)cn1 (stereo not shown)",
    "target or test system": "CCDC6-RET (Homo sapiens (Human))",
    "IC50 [nM]": 1.02
  }
]

###

Quick list: AUC(0-inf) per entry.
test: Pharmacokinetic assay in rats; assay type: in vivo, rat; settings: rat, plasma, po; SD male rats, p.o. 5 mg/kg
quantity: AUC(0-inf) (ng·h/mL)

[
  {
    "compound": "[2H]C([2H])([2H])N1CCN(c2cc(-c3ccc(N4CC5CC(C4)N5Cc4ccc(OC)nc4)nc3)c3c(C#N)cnn3c2)CC1",
    "assay result": 1640
  },
  {
    "compound": "COc1ccc(CN2C3CC2CN(c2ccc(-c4cc(OCC(C)(C)O)cn5ncc(C#N)c45)cn2)C3)cn1 [Selpercatinib, selpercatinib, reference compound]",
    "assay result": 11000
  }
]

###

assay: Tissue distribution assay in mice; assay type: in vivo, mouse; settings: male, mouse, liver; NVSG mice, oral 30 mg/kg, 4 h after administration; read-out: Concentration of compound in liver

[
  {
    "compound": "COc1ccc(CN2C3CC2CN(c2ccc(-c4cc(OCC(C)(C)O)cn5ncc(C#N)c45)cn2)C3)cn1 [Selpercatinib, selpercatinib, reference compound]",
    "concentration at 4 h (ng/g)": 12900
  }
]

###

assay: Pharmacokinetic assay in rats; type: in vivo, rat; details: rat, plasma, iv; SD male rats, i.v. 1 mg/kg

[
  {
    "chemical string": "[2H]C([2H])([2H])N1CCN(c2cc(-c3ccc(N4CC5CC(C4)N5Cc4ccc(OC)nc4)nc3)c3c(C#N)cnn3c2)CC1",
    "half-life": "13.3 h"
  }
]

###

Reported pIC50 by item:
target: FGFR2 N549H (Homo sapiens (Human), UniProt P21802, N549H); test: HTRF kinase activity assay, FGFR2 N549H
Sequence (P21802 22-821 N549H): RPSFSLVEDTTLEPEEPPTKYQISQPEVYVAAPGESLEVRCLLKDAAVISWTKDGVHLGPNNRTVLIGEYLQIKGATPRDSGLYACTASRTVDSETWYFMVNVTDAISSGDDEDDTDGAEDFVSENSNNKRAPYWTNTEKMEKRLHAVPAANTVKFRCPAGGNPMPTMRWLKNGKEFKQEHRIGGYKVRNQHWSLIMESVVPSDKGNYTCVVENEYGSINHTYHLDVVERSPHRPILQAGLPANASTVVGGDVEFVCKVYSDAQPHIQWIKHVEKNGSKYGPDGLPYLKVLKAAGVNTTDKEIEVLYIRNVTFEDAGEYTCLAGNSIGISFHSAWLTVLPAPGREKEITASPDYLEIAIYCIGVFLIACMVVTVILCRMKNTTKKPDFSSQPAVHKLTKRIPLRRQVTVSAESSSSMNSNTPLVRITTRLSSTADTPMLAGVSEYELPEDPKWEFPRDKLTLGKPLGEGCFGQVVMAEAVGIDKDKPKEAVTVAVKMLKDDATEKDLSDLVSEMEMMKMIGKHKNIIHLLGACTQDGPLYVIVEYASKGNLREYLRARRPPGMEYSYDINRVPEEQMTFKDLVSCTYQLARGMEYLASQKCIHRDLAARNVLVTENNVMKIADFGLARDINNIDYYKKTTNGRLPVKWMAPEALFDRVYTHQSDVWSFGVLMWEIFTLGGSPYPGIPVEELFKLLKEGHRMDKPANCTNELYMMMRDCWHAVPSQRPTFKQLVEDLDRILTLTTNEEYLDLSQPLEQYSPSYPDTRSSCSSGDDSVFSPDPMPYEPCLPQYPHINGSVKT
pIC50: −log10 of the molar value.
quantity: pIC50

[
  {
    "molecule": "[2H]C([2H])([2H])N1CCN(c2cc(-c3ccc(N4CC5CC(C4)N5Cc4ccc(OC)nc4)nc3)c3c(C#N)cnn3c2)CC1",
    "assay result": 8.66
  },
  {
    "molecule": "COc1ccc(CN2C3CC2CN(c2ccc(-c4cc(OCC(C)(C)O)cn5ncc(C#N)c45)cn2)C3)cn1 [Selpercatinib, selpercatinib, reference compound]",
    "assay result": 8.03
  }
]

###

test: Metabolic stability in human liver microsomes
quantity: half-life at 1 µM (h)

[
  {
    "chemical string": "COc1ccc(CN2C3CC2CN(c2ccc(-c4cc(N5CCP(C)(=O)CC5)cn5ncc(C#N)c45)cn2)C3)cn1",
    "quantity": "half-life at 1 µM",
    "assay result": 3.85
  }
]

###

pIC50: −log10 of the molar value.
# pIC50 measurements, system: RET wild type (RET WT) (Homo sapiens (Human), UniProt P07949)
# Sequence (P07949 29-1114): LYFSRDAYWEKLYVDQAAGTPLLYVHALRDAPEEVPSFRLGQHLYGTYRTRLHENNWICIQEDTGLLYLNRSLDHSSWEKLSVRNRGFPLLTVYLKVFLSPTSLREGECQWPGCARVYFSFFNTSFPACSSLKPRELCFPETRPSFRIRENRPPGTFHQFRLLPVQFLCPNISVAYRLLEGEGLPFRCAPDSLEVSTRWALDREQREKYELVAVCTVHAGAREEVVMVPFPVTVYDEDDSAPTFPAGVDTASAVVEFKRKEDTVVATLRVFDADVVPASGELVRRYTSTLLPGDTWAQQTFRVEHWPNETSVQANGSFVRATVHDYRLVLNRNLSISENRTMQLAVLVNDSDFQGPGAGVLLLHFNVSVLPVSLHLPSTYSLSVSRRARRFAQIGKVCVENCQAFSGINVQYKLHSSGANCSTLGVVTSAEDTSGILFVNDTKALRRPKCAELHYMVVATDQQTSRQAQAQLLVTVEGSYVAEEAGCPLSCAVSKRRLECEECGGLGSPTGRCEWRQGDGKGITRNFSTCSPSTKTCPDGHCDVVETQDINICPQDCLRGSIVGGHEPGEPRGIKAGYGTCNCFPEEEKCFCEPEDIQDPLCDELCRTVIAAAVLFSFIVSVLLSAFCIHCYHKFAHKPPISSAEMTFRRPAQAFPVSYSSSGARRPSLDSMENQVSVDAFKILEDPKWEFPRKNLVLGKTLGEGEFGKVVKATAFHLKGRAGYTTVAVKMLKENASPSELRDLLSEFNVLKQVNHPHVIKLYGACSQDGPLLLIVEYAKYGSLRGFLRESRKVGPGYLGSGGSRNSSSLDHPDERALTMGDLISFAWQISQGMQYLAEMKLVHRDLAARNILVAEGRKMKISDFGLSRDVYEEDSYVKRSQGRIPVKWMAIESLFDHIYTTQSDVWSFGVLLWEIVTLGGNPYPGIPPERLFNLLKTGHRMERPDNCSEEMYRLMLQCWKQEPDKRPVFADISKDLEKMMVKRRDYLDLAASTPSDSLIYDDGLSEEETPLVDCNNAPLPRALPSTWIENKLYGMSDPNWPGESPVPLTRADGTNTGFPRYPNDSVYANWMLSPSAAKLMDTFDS

[
  {
    "compound": "COc1ccc(CN2C3CC2CN(c2ccc(-c4cc(-c5cnn6c5CCC6)cn5ncc(C#N)c45)cn2)C3)cn1 [Compound 51]",
    "pIC50": 8.34
  },
  {
    "compound": "[2H]C([2H])([2H])N1CCN(c2cc(-c3ccc(N4CC5CC(C4)[N+]5([O-])Cc4ccc(OC)nc4)nc3)c3c(C#N)cnn3c2)CC1 (stereo not drawn) [Compound 99]",
    "pIC50": 7.25
  },
  {
    "compound": "COc1ccc(CN2C3CC2CN(c2ccc(-c4cc(N5CCC(O)C5)cn5ncc(C#N)c45)cn2)C3)cn1 (stereo not drawn) [Compound 67]",
    "pIC50": 9.10
  },
  {
    "compound": "COc1ccc(CN2CCC(Nc3ccc(-c4cc(-c5cnn(C)c5)cn5ncc(C#N)c45)cn3)CC2)cn1 [Compound 21]",
    "pIC50": 7.35
  },
  {
    "compound": "COc1ccc(CN2C3CC2CN(c2ccc(-c4cc(N5CCC(C)(O)C5)cn5ncc(C#N)c45)cn2)C3)cn1 (stereo not drawn) [Compound 70]",
    "pIC50": 8.93
  },
  {
    "compound": "COc1ccc(CN2C3CC2CN(c2ccc(-c4cc(N5CCC(OC)C5)cn5ncc(C#N)c45)cn2)C3)cn1 (stereo not drawn) [Compound 68]",
    "pIC50": 8.89
  },
  {
    "compound": "[2H]C([2H])([2H])N1CCN(c2cc(-c3ccc(N4CC5CC(C4)N5Cc4ccc(OC)nc4)nc3)c3c(C#N)cnn3c2)CC1 [Compound 94]",
    "pIC50": 8.33
  },
  {
    "compound": "COc1ccc(CN2C3CC2CN(c2ccc(-c4cc(C#CC(C)(C)O)cn5ncc(C#N)c45)cn2)C3)cn1 [Compound 66]",
    "pIC50": 8.78
  },
  {
    "compound": "[2H]C([2H])([2H])[N+]1([O-])CCN(c2cc(-c3ccc(N4CC5CC(C4)N5Cc4ccc(OC)nc4)nc3)c3c(C#N)cnn3c2)CC1 [Compound 101]",
    "pIC50": 8.60
  }
]

###

system: Ba/F3 KIF5B-RET cells; experiment: Ba/F3 KIF5B-RET cell inhibition (CellTiter-Glo); format: cell-based; details: Mus musculus, BaF3, 72 h
pIC50: −log10 of the molar value.
Rule: True for pIC50 not less than 8, False for anything less.

[
  {
    "compound": "COc1ccc(CN2C3CC2CN(c2ccc(-c4cc(N5CC(C)(O)C5)cn5ncc(C#N)c45)cn2)C3)cn1 [Compound 86]",
    "group label": "True"
  },
  {
    "compound": "COc1ccc(CN2C3CC2CN(c2ccc(-c4cc(N5CCC(O)C5)cn5ncc(C#N)c45)cn2)C3)cn1 (centres unmarked) [Compound 67]",
    "group label": "True"
  },
  {
    "compound": "[2H]C([2H])([2H])N1CCN(c2cc(-c3ccc(N4CC5CC(C4)N5Cc4ccc(OC)nc4)nc3)c3c(C#N)cnn3c2)CC1 [Compound 94]",
    "group label": "False"
  },
  {
    "compound": "COc1ccc(CN2C3CC2CN(c2ccc(-c4cc(N5CCC(OC)C5)cn5ncc(C#N)c45)cn2)C3)cn1 (centres unmarked) [Compound 68]",
    "group label": "True"
  },
  {
    "compound": "COc1ccc(CN2C3CC2CN(c2ccc(-c4cc(N5CCN(C)C(=O)C5)cn5ncc(C#N)c45)cn2)C3)cn1 [Compound 89]",
    "group label": "False"
  }
]
